Target: T1, EsCas13d, nuclease-dead (Eubacterium siraeum, UniProt B0MS50, R295A;H300A;R849A;H854A)
T1 sequence: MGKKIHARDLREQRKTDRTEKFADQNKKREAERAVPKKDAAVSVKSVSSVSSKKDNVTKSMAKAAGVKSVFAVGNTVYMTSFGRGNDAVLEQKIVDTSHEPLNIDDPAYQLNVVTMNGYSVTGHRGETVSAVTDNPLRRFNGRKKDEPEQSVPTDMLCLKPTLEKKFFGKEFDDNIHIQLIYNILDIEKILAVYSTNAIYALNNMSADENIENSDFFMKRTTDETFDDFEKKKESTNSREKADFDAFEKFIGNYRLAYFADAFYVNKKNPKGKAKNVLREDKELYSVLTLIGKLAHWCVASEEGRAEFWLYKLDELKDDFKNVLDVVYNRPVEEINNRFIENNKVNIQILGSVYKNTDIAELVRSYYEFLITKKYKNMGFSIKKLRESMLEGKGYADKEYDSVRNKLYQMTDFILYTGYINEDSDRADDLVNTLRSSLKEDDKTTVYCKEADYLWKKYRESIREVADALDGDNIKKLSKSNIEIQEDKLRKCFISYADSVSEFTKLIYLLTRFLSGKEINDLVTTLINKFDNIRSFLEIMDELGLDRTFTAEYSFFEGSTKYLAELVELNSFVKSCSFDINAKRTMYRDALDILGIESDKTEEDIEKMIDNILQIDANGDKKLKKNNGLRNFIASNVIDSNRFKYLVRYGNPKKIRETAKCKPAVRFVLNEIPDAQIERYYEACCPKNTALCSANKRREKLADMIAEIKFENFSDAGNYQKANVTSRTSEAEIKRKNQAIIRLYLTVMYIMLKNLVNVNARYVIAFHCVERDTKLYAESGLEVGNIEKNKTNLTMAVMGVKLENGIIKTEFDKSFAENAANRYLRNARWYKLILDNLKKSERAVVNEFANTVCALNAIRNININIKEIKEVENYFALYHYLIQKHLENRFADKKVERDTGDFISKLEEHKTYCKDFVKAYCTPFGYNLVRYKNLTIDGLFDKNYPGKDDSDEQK
Assay: crRNA (strand 1, pre-loaded); Mg2+; 40 mM Tris-HCl pH 7.5, 150 mM NaCl, 6 mM MgCl2, 1 mM DTT, 0.1% Tween-20, 0.2 mg/ml BSA; 25 C; 10 min per concentration, then washed
Conditions: tags: His6-TwinStrep-SUMO cleaved; N-terminal SNAP kept (SNAP-Surface 488); label: 3' end held by stalled T7 RNA polymerase
MEASURE: Kd (nM)
Numbers only, in nM.

- BINDER: "target 2 MT 5'PFS AAU 3'PFS UCA (mixed) RNA 1: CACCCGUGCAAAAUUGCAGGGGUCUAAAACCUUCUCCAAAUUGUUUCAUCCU RNA 2: GGGAAUGGAUCCACAUCUACGAAUUCAAUAGGAUGAAACAAUUUGGAGAAGUCAAGAUCGGAAGAGCACACGU"
  Kd (nM): 10.4

Below: the item to evaluate.
Which Kd reading was recorded for the binder target 3 G3C,G4A (mixed) RNA 1: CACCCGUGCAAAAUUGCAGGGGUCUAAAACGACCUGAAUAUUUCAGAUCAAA RNA 2: GGGAAUGGAUCCACAUCUACGAAUUCGUUUUUGAUCUGAAAUAUUCAACUCUGCAGAUCGGAAGAGCACACGU ? 6.6
